Source: the supplement of paper PMC10567573

For each record, write down the corresponding protein stability index.
B1: WDR41 (parent)
chain: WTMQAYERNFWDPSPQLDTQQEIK

Variants of: B1
Experiment: protein stability index of a GFP-peptide fusion (GPS, HEK-293T) (PSI 1-6); higher = more stable;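 further: lentivirally expressed fusions sorted by FACS into six bins by GFP to DsRed ratio, PSI derived from sequencing read proportions per bin multiplied by bin number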
Details: c terminus: a fixed tail appended
// response body must contain only the number

IN: I am curious: what protein stability index value has been reported for WTMQAYERNFWDPSPQLVTQQEIK [D18V] ?
OUT: 2.63

IN: I am curious: what protein stability index value has been reported for WTMQAYERNFWDPSPQLDTQQEIY [K24Y] ?
OUT: 2.46

IN: I am curious: what protein stability index value has been reported for WTMQAYEVNFWDPSPQLDTQQEIK [R8V] ?
OUT: 2.57

IN: I am curious: what protein stability index value has been reported for WTMQAYERNFWDPSPQLDQQQEIK [T19Q] ?
OUT: 2.55

IN: I am curious: what protein stability index value has been reported for WTMQAYERNFWDPSIQLDTQQEIK [P15I] ?
OUT: 2.15

IN: I am curious: what protein stability index value has been reported for WTMQAYERYFWDPSPQLDTQQEIK [N9Y] ?
OUT: 2.08

IN: I am curious: what protein stability index value has been reported for WTMQANERNFWDPSPQLDTQQEIK [Y6N] ?
OUT: 2.93

IN: I am curious: what protein stability index value has been reported for WTMQAYERNFWDPSPQLDTQQEAK [I23A] ?
OUT: 2.99

IN: I am curious: what protein stability index value has been reported for WTMQAYERNFWDPSPQLDTQQEID [K24D] ?
OUT: 2.83

IN: I am curious: what protein stability index value has been reported for WTMQAYERNFWDPSPQLTTQQEIK [D18T] ?
OUT: 2.44

IN: I am curious: what protein stability index value has been reported for WVMQAYERNFWDPSPQLDTQQEIK [T2V] ?
OUT: 2.14
